Some compounds, each annotated with its measured Activity (%).
Tested on: alkaline protease from shipworm bacterium
experimental_details: Inhibition of alkaline protease: preincubation with inhibitor, then azocasein assay
Type: biochemical, bacterial symbiont of the shipworm Psiloteredo healdi
stated_conditions: inhibitor 10 mM; preincubated 1 hr at 25° C.; assay 42° C., pH 9.0, 0.2M NaCl; 100% = 154 units/ml
Structures can show the parent of a compound that is named as a salt.
# output: bare number, implied unit %

Here is how some compounds turned out for Activity (%).
{"columns": ["compound", "value_units", "result"],
 "data": [
  ["O=C(O)CN(CCN(CC(=O)O)CC(=O)O)CC(=O)O [EDTA (disodium salt), EDTA]", "%", 102],
  ["O=S(=O)(F)Cc1ccccc1 [Phenylmethanesulphonyl fluoride]", "%", 102],
  ["Cc1ccc(S(=O)(=O)N[C@@H](CCCCN)C(=O)CCl)cc1", "%", 7],
  ["Cc1ccc2ccc3ccc(C)nc3c2n1 [Neocuproine HCl]", "%", 99],
  ["[Cl][Cu][Cl]", "%", 94],
  ["Cc1ccc(S(=O)(=O)N[C@@H](Cc2ccccc2)C(=O)CCl)cc1", "%", 100],
  ["NC(=O)CI [Iodoacetamide]", "%", 100]
]}

Switching to the query record.
Looking up [Cl][Hg][Cl] , I see its Activity (%) listed as 8
